Where do these numbers come from? They come from patent US20220251562.

target: CD3 epsilon/delta heterodimer (Homo sapiens, UniProt P07766;P04234 P07766:23-126,P04234:22-105); assay: SPR; steady state; kinetic 3.2 uM (Table 6); conditions: tags: C-terminal human IgG1 Fc fusion, AcroBiosystems; chain copies: heterodimer 1:1 (inferred); label: 5'-biotin-TEG
Sequence (P07766 23-126, stated change not applied, chain 1 of 2): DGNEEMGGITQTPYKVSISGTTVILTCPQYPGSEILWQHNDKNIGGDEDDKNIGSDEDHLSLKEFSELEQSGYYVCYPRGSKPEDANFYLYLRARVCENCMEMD
Sequence (P04234 22-105, stated change not applied, chain 2 of 2): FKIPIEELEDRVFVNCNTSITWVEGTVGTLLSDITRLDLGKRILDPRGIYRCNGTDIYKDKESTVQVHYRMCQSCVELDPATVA
MEASURED PROPERTY: pKd
Note on units: pKd is unitless, being -log10 of a concentration expressed in mol/L.

Need pKd, item GAGGGGTTTGGCATCGGGCCTGGCGCCATTCAAGCTATGC (ssDNA) [CELTIC_2s]
6.59
